tested on: UACC-62; assay: NCI tumour cell line growth inhibition, 48 h
The source made the active and inactive calls. Rule as the data show it: active = GI50 up to about 1.1 µM and inactive = higher.
PROPERTY NAME: GI50

Look over these answered cases.
Which GI50 reading was recorded for the molecule COC(=O)c1ccccc1NC(=O)/C(=N\NC(C)(C)C)C(C#N)c1nc(-c2ccc([N+](=O)[O-])cc2)cs1 (stereo not given) ? > 100 µM (inactive)

Look at this molecule and give its reported GI50. O=CN/C=C/c1cc(O)ccc1O [ERBSTATIN] 13.7 µM (inactive)

Look up GI50: Cc1c2c(n(CCc3ccc(Cl)cc3)c1C)NC(c1ccccc1)C(C#N)S2(=O)=O (stereo not given) 36.6 µM (inactive)

Find the recorded GI50 belonging to CCOC(=O)CC[C@@H](NC(=O)c1ccc(N[C@@H]2c3cc4c(cc3C(c3cc(OC)c(O)c(OC)c3)C3C(=O)OC[C@@H]32)OCO4)cc1)C(=O)OCC (stereo not given in full) and report it. 0.0167 µM (active)

Okay, now this molecule:
# GI50 lookup, item COc1cc2cnc3c4cc(OC)c(OC(C)C)cc4ccc3c2cc1OC > 100 µM (inactive)

====

tested on: OVCAR-5; assay: NCI tumour cell line growth inhibition, 48 h
Active and inactive are the calls of the source. No stated cut-off is given here; in the data, active = GI50 up to about 1.1 µM and inactive = higher.
PROPERTY NAME: GI50

// returns reported GI50 for input CC(C)(C)c1cc(C(O)(C(=O)O)C(=O)O)cc(C(C)(C)C)c1O > 100 µM (inactive)

Could you tell me which GI50 is on file for COC(=O)C(C(=O)C(=O)NC1=C(Cl)C(=O)c2ccccc2C1=O)c1csc(-n2nc(-c3ccccc3)cc2-c2ccccc2)n1 (stereo not drawn) ? > 100 µM (inactive)

So what's the measured GI50 for this one? CN(C)CCn1c(CO)nc2c1c(=O)n(C)c(=O)n2C > 100 µM (inactive)

Using the record for C=CCCCCOC1C=CC(O)C(CO)O1 (stereo not drawn) , report its GI50. > 100 µM (inactive)

Entry under review: [N-]=[N+]=NC1=NNC2(C(=O)N1)c1ccccc1-c1ccccc12 . Reported GI50? > 100 µM (inactive)

Data request, read-out GI50, for CC(C)c1cc2c(O)c(c1)Cc1cc(C(C)C)cc(c1O)Cc1cc(C(C)C)cc(c1O)Cc1cc(C(C)C)cc(c1O)C2 > 100 µM (inactive)

New cases:
# input compound: O=S1(=O)OCCOS(=O)(=O)C1(F)Cc1ccccc1 ; wanted: its GI50 > 100 µM (inactive)

Requested read-out: GI50. Entry: C=C(C)CC1=C(C(=S)NCCO[Si](C)(C)C(C)(C)C)C(OCC)(OCC)C1=O 14 µM (inactive)

Look up GI50 for this compound: CC(C)(C)OC(=O)NC1CC=CCC1NC(=O)OC(C)(C)C (stereo not drawn) > 100 µM (inactive)

Query: GI50; subject: Clc1ccccc1C1SCc2nc3ccccc3n21 (stereo not drawn) 17.6 µM (inactive)

Using the record for O=C(/C=C/c1ccc(O)cc1)NCCc1ccc(O)cc1 , report its GI50. > 12.5 µM (inactive)

====

system: IGROV-1; assay: NCI tumour cell line growth inhibition, 48 h
Calls of active or inactive are those of the source. Cut-off read from the data, not from the text of the source: active = GI50 up to about 1.1 µM and inactive = higher.
# GI50 annotations

Recorded results for 3 compounds are shown here.
Item N#Cc1ccc(Oc2ccccc2)cc1C#N has what recorded GI50? > 100 µM (inactive)

Item COc1ccc(NC(=O)c2cc(OC)cc(OC)c2)cc1 has what recorded GI50? 28 µM (inactive)

Return reported GI50; argument: COc1cc(NS(C)(=O)=O)ccc1Nc1ccnc2ccc3[nH]ccc3c12 16.1 µM (inactive)

Others:
Fill in the blank: the reported GI50 of O=C1CC2(c3ccccc3)ON=C(c3ccccc3)N2c2ccccc2N1 (stereo not given) is ____. 58.5 µM (inactive)

Item under review: C/C=C(/COC(C)=O)C(=O)OC1C=C(C=O)C(C)(C)C=C1C (stereo not given) . Reported GI50? 96.6 µM (inactive)

====

test system: K562; test: NCI tumour cell line growth inhibition, 48 h
Active and inactive are the calls of the source. Rule as the data show it: active = GI50 up to about 1.1 µM and inactive = higher.
PROPERTY NAME: GI50

Known GI50 results, listed for orientation:
I am curious: what GI50 value has been reported for Cc1ccc(C(=O)/C=C2\Nc3ccccc3NC2=O)cc1 ? > 100 µM (inactive)

// returns reported GI50 for input CCOC(=N)CC(=O)c1ccccc1 > 100 µM (inactive)

# input compound: CCC(C)C1=C(OC(C)=O)[N+]2([O-])Oc3ccc(-c4c(OC(C)=O)c(OC(C)=O)c(-c5ccc(OC(C)=O)cc5)c(OC(C)=O)c4OC(C)=O)cc3OC2(C(C)CC)C(=O)N1OC(C)=O (stereo unspecified) ; wanted: its GI50 12.2 µM (inactive)

# lookup: GI50 of CC(C)(C)OC(=O)NC1CC=CCC1NC(=O)OC(C)(C)C (stereo unspecified) 97.9 µM (inactive)

Bench note: what GI50 did O=c1cc2oc3ccc4ccccc4c3cc-2c(=O)[nH]1 show? 19.8 µM (inactive)

Return reported GI50; argument: N=C(N)NS(=O)(=O)c1ccc(Nc2c3ccccc3nc3ccc(C(=O)Nc4ccc(S(N)(=O)=O)cc4)cc23)cc1 > 100 µM (inactive)

Looking for the measured GI50 of COC(=O)C12C3C4(C(=O)OC)C1C1(C(=O)OC)C2C3(C(=O)OC)C41C(=O)N(C(C)C)C(C)C (stereo unspecified) , can you help? > 100 µM (inactive)

Sample C=CCCCCOC1C=CC(O)C(CO)O1 (stereo unspecified) — what was its GI50? > 100 µM (inactive)

New cases:
GI50 lookup needed for Sc1cnnc2ccc(Br)cc12 , thanks. 37.8 µM (inactive)

Param item = C/C(=N\Nc1nc2ccccc2o1)c1cccc[n+]1[O-] ; retrieve measured GI50. 7.23 µM (inactive)

Please give the measured GI50 for this compound: CCOC(=O)CC[C@@H](NC(=O)c1ccc(N[C@@H]2c3cc4c(cc3C(c3cc(OC)c(O)c(OC)c3)C3C(=O)OC[C@@H]32)OCO4)cc1)C(=O)OCC (stereo partly specified) 0.0469 µM (active)

For O=c1oc2c3ccc4ccccc4c3n(CCN3CCOCC3)c2c2ccccc12 , what is its reported GI50? 3.89 µM (inactive)

Fill in: GI50 of O=C(C1OC1c1ccc(Br)cc1O)C12CC3CC(CC(C3)C1)C2 (stereo unspecified) is ___ 15.4 µM (inactive)

====

tested on: ACHN; test: NCI tumour cell line growth inhibition, 48 h
Active and inactive are the calls of the source. Cut-off read from the data, not from the text of the source: active = GI50 up to about 1.1 µM and inactive = higher.
PROPERTY NAME: GI50

Enter reported GI50 observed with ACHN for O=C1CSC2=NC3=C(CSC/C3=C\c3ccc(Cl)cc3)C(c3ccc(Cl)cc3)N12 (configuration not stated) 16.9 µM (inactive)

Notebook: pull reported GI50 for ACHN, entry CCOC(=O)c1cc(Br)c(-c2onc(C)c2Br)n1C 41.6 µM (inactive)

What GI50 appears in the records for this compound with ACHN? CC12C3CC4C5CC(C(C53)[C@@H]1NCc1ccccc1)C42 (some centres not stated) > 100 µM (inactive)

Others:
# query: GI50 | item COC(=O)/C(C#N)=C(\Nc1ccccc1)N1CCCC1 | system: ACHN > 100 µM (inactive)

API: value(readout=GI50, system=ACHN) for record CCCCCCCCCCCCC(Br)C(=O)NCC(N)=O (configuration not stated) 15 µM (inactive)

Form field: GI50 recorded for FC(F)=C(c1ccc(-c2ccc(Cl)cc2)cc1)C(F)(F)F with ACHN (enter value) 17.3 µM (inactive)

Checklist item: GI50 tested on ACHN, entry C=CC[C@H]1[C@@H](O[Si](C)(C)C(C)(C)C)[C@H](n2ccc(=O)[nH]c2=O)O[C@@H]1CO[Si](C)(C)C(C)(C)C , value? 2.33 µM (inactive)

====

test system: CAKI-1; test: NCI tumour cell line growth inhibition, 48 h
The source made the active and inactive calls. No stated cut-off is given here; in the data, active = GI50 up to about 1.1 µM and inactive = higher.
Each entry below carries its reported GI50.

Below, 8 molecules whose answers are already recorded.
Return reported GI50; argument: CC1(C)CN=C(Nc2ccc(F)cc2)S1 > 100 µM (inactive)

Given the entry CC(C)C(C/C=C1\CC(CO)(COC(=O)CC(C(C)C)C(C)C)OC1=O)C(C)C (stereo not given) , report its measured GI50. 6.87 µM (inactive)

Please report the recorded GI50 for CCOC(=O)c1cc(Br)c(-c2onc(C)c2Br)n1C . 12.8 µM (inactive)

What value of measured GI50 is listed for CCOC(=O)C1(C(F)(F)F)N=C(CC)OC(N2CCOCC2)=N1 (stereo not given) ? > 100 µM (inactive)

// query GI50 value for entry COc1ccccc1C1Nn2c(nc3ccccc3c2=O)N1c1ccc(C)cc1 (stereo not given) 7.83 µM (inactive)

Requested read-out: GI50. Entry: CN(c1ccccc1)C(c1ccccc1)C(O)c1ccccc1 (stereo not given) 20.5 µM (inactive)

Record request: GI50 value, item COC(=O)/C=C1\C(=O)N(C(C)=O)c2ccccc21 0.0671 µM (active)

Which value of GI50 has been reported for O=C1c2ccccc2/N=C(/c2cc3c(cc2Cl)Sc2nccn2S3(=O)=O)OS(=O)(=O)N1c1ccccc1 in the records? 35.7 µM (inactive)

More entries:
Looking for the measured GI50 of C/C(=N/NS(=O)(=O)c1ccccc1)c1cccc[n+]1[O-] , can you help? > 100 µM (inactive)

Return reported GI50; argument: CC(=O)Nc1cc(N(CCOS(C)(=O)=O)CCOS(C)(=O)=O)ccc1N=O > 100 µM (inactive)

Data request, read-out GI50, for CN(C1=NCCO1)c1cccc2ccccc12 > 10 µM (inactive)

Please give the measured GI50 for this molecule: CC(C)c1cc2c(O)c(c1)Cc1cc(C(C)C)cc(c1O)Cc1cc(C(C)C)cc(c1O)Cc1cc(C(C)C)cc(c1O)C2 > 100 µM (inactive)

# GI50 lookup, item COC(=O)NC(Nc1ccc(C)cc1)(C(F)(F)F)C(F)(F)F > 100 µM (inactive)

Query (molecule): C#CCNCC(=O)O ; field requested: GI50 > 100 µM (inactive)

Given the entry O=c1[nH]nc(Cc2ccccc2)n1/N=C\c1ccccc1 , report its measured GI50. > 100 µM (inactive)
